// data source = ChEMBL document CHEMBL3433997

- Test System: Glucose transporter (Leishmania mexicana) (UniProt O61059)
- Assay Comment: ST_JUDE_LEISH: Cytotoxicity at 2uM final concentration against transgenic Leishmania Mexicana promastigotes LmGT2 that are glucose transport deficient and complemented with the L. Mexicana glucose transporter 2. Activity is measured by DNA content using SYBR green in vitro
- Type: functional
Exercise: for every item that follows, state its recorded inhibition.
Please state the figure in %; there is no need to write the unit.

For `c1cc(CN2CCN(c3ccncc3)CC2)cc(-c2ccc(-c3nc4ccccc4[nH]3)s2)c1` on Glucose transporter (Leishmania mexicana) (UniProt O61059), measured inhibition was 2.03

For `CN1CCCN(Cc2ccc(-c3cccc(NC(=O)c4ccc(C#N)cc4)c3)cc2)CC1` on Glucose transporter (Leishmania mexicana) (UniProt O61059), measured inhibition was -1.1

For `CC(C)(C)CCN1CCC(NC(=O)c2ccc(-c3cccc(C(F)(F)F)c3)s2)CC1` on Glucose transporter (Leishmania mexicana) (UniProt O61059), measured inhibition was 3.83

For `Cc1ccc(CN2CCCN(Cc3cccc(NC(=O)c4ccc(-c5ccccc5)cc4)c3)CC2)cc1C` on Glucose transporter (Leishmania mexicana) (UniProt O61059), measured inhibition was 2.82

For `CC(C)CN1CCCN(Cc2cccc(NC(=O)c3ccc(Cl)c(Cl)c3)c2)CC1` on Glucose transporter (Leishmania mexicana) (UniProt O61059), measured inhibition was 4.5

For `COc1cccc(C(=O)NCCOc2ccccc2)c1Oc1ccccc1` on Glucose transporter (Leishmania mexicana) (UniProt O61059), measured inhibition was 5.15

For `COc1ccc(C(=O)Nc2ccc(Nc3nc(C)cc(N(C)C)n3)cc2)c(OC)c1` on Glucose transporter (Leishmania mexicana) (UniProt O61059), measured inhibition was 5.62

For COc1cc(Nc2nccc(N3CCC(NC(=O)Nc4ccc5c(c4)OCO5)C3)n2)cc(OC)c1OC (centres undefined) on Glucose transporter (Leishmania mexicana) (UniProt O61059), measured inhibition was 8.87

For Cc1ccccc1C1CCN(C2CCC(NC(=O)/C=C/c3ccc(F)cc3)CC2)CC1 (centres undefined) on Glucose transporter (Leishmania mexicana) (UniProt O61059), measured inhibition was 0.53

====

- Test System: Solute carrier family 2, facilitated glucose transporter member 1 (Homo sapiens)
- Assay Comment: ST_JUDE_LEISH: Cytotoxicity at 2uM final concentration against transgenic Leishmania Mexicana promastigotes LmGLUT1 that are glucose transport deficient and complemented with the human glucose transporter GLUT1. Activity is measured by DNA content using SYBR green in vitro
- Assay type: functional
Exercise: for every item that follows, state its recorded inhibition.

Looking up COc1cc(C(=O)N2CCOC(CCN3CCC[C@H]3C(=O)Nc3ccccc3)(c3ccc(Cl)c(Cl)c3)C2)cc(OC)c1OC (some centres not stated) , I found its inhibition recorded as 6.58%

Looking up `COc1ccc(Cl)cc1NC(=O)Nc1ccc2c(c1)CCN(C1CCC1)CC2` , I found its inhibition recorded as 2.26%

Looking up CN(C)c1ccc(CN2CCC(CNC(=O)c3cc(-c4cccc(C(F)(F)F)c4)cs3)C2)cc1 (configuration not stated) , I found its inhibition recorded as 2.15%

Looking up `COc1ccc(-c2c3c(=O)n(C)c(=O)n(C)c3c3nnc4ccccc4n23)cc1` , I found its inhibition recorded as 0.81%

Looking up `c1ccc(C2CCN(Cc3ccc(-c4c[nH]c5nc(NC6CCCC6)ncc45)cc3)CC2)cc1` , I found its inhibition recorded as 2.79%

Looking up `Cc1ccc(F)cc1S(=O)(=O)Nc1cccc(CCN2CCC(N3CCCCC3)CC2)c1` , I found its inhibition recorded as 3.52%

Looking up `COc1cccc(Nc2nc(NCCO)c3ccccc3n2)c1` , I found its inhibition recorded as 14.8%

Looking up `Oc1ccc2ccccc2c1CNCCC1CCCCC1` , I found its inhibition recorded as 0.07%

Looking up CC(C)c1cc2c(cc1O)C(Cc1ccccc1Cl)N(C)CC2 (configuration not stated) , I found its inhibition recorded as 2.73%

Looking up `CC(=O)Nc1ccc(S(=O)(=O)Nc2ccc(Nc3nc(C)cc(N4CCCCC4)n3)cc2)cc1` , I found its inhibition recorded as 5.51%

Looking up `FC(F)(F)COc1c(CCNCCCCNCCc2ccc3ccccc3c2OCC(F)(F)F)ccc2ccccc12` , I found its inhibition recorded as 105%

Looking up `CS(=O)(=O)c1cccc(-c2cnc3[nH]cc(-c4ccc(CCC(=O)O)cc4)c3c2)c1` , I found its inhibition recorded as 0.77%

Looking up O=[N+]([O-])c1ccc(N/C(=N\c2ccccc2Br)NC2CCCc3ccccc32)c(O)c1 (configuration not stated) , I found its inhibition recorded as 0.73%

Looking up `CN1CCN(c2nsc3ccc(-c4ccc(NC(=O)Nc5ccccc5)cc4)cc23)CC1` , I found its inhibition recorded as 2.28%

Looking up `FC(F)(F)c1ccc2[nH]c(-c3cccc(-c4cccc(CNCc5cnn(-c6ccccc6)n5)c4)c3)nc2c1` , I found its inhibition recorded as 5.47%

Looking up `Clc1cc(Nc2ncnc3sc(C#Cc4ncc[nH]4)cc23)ccc1OCc1ccccn1` , I found its inhibition recorded as -0.91%

Looking up `C=CCN1C(=O)C(=Cc2cc(Br)ccc2O)SC1=Nc1ccccc1` , I found its inhibition recorded as 8.65%

Looking up `c1ccc(-c2n[nH]cc2Nc2ccnc3ccccc23)nc1` , I found its inhibition recorded as 5.35%

Looking up `O=C(NCCCc1ccccc1)c1ccc(O)c(-c2cc(Cl)cc(Cl)c2)c1` , I found its inhibition recorded as 4.73%

Looking up `Cc1[nH]c(C)c(-c2ccc(-c3ccc(OC(F)(F)F)cc3)cc2)c(=O)c1Br` , I found its inhibition recorded as 2.4%

Looking up `Cc1ccc(C(=O)Cn2nc(-c3ccc(C)c(S(=O)(=O)N4CCCC4)c3)ccc2=O)cc1` , I found its inhibition recorded as 1.61%

Looking up O=C(Nc1ccc(C(=O)OCC2CCCCC2)cc1)N[C@@H](Cc1ccc(O)cc1)C(=O)NC1CCN(Cc2ccc(O)cc2)C1 (some centres not stated) , I found its inhibition recorded as 3.7%
